Origin of measurements: PubChem BioAssay

# Assay summary: MRP1 drug-resistance reversers in H69AR cells – cell-based, doxorubicin co-treatment, pilot screen (AID 601)
# Condition summary: H69AR cells + 2 uM doxorubicin, CellTiter-Glo, 72 h; measured here: viability with 2 uM doxorubicin; at 10 µM; stronger effect = lower value
Readout label: viability (%)
Give the value in % but do not write % after it.

Example results:
CCOc1ccc(CCN2C(=O)C3C4C=CC(C4)C3C2=O)cc1OCC (configuration not stated) = 83.4
Cc1ccc(C)c2[nH]c(=O)c(CCNC(=O)CC(C)(C)C)cc12 = 69.7
O=C(c1ccc2c(c1)OCCO2)N1CCCCC1 = 102
COc1ccc(-c2nc(CSCC(=O)NCc3ccc4c(c3)OCO4)c(C)o2)cc1OC = 92
CC(=O)NCc1nc2ccccc2n1C(C)C = 82.3

Lookup: What value of viability has been recorded for this entry: `CCOC(=O)N1CCC(NC(=O)C2CCN(S(=O)(=O)c3cccc4cccnc34)CC2)CC1`
Found: 101

Lookup: Please give the result for `CCOc1ccccc1N(CC(=O)N1CCCCCC1)S(C)(=O)=O` too.
Found: 89.5

Lookup: Please give the result for `COc1cc2[nH]c(=O)n(CCCCCC(=O)N3CCN(c4ccccn4)CC3)c(=O)c2cc1OC` too.
Found: 92.1

Lookup: Please give the result for `CCCCC(=O)NCCc1cc2c(C)ccc(C)c2[nH]c1=O` too.
Found: 83.4

Lookup: Please give the result for `O=C(c1ccc(=O)[nH]c1)N(Cc1ccco1)C1(C(=O)NC2CCCC2)CCCCC1` too.
Found: 91.7

Lookup: Please give the result for `CC1CCN(c2nc3c(c(=O)[nH]c(=O)n3C)n2CCSc2ncccn2)CC1` too.
Found: 90.4

----------
Listing of entries alongside the reported Her2 level.
# Measured on: Receptor tyrosine-protein kinase erbB-2 (Homo sapiens) (UniProt P04626)
# Sequence (P04626 whole entry, looked up): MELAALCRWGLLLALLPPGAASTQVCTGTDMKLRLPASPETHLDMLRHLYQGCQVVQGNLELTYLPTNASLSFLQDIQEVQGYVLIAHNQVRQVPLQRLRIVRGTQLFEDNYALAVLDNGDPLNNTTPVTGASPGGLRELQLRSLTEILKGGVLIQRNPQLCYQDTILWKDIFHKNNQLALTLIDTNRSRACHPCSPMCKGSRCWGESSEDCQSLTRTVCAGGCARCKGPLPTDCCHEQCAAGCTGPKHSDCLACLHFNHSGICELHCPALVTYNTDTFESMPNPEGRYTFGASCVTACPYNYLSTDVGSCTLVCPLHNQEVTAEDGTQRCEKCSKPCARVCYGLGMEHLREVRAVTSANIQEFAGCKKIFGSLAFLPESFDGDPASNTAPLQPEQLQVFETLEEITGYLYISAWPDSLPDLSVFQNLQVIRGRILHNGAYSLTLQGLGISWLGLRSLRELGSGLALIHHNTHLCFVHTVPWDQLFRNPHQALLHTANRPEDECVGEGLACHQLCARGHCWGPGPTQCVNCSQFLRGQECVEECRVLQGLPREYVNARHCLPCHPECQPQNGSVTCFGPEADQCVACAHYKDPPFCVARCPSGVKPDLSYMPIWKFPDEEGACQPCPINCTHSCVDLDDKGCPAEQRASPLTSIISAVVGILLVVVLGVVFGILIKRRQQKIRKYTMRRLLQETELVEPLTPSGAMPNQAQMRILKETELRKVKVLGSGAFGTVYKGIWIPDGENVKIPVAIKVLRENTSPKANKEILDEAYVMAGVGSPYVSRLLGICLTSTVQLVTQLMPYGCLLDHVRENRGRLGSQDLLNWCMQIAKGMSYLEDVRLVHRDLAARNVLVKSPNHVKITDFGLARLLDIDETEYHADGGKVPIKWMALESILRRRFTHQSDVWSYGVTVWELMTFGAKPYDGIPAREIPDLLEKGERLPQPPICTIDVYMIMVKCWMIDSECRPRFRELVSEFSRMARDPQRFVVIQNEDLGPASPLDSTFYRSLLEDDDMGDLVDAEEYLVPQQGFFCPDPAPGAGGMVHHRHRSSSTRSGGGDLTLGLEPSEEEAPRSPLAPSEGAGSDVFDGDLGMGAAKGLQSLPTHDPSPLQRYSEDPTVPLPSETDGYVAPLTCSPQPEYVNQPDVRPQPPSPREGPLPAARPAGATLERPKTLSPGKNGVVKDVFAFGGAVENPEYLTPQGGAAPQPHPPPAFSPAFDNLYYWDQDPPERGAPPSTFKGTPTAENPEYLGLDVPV
# Assay summary: Her2 expression decrease, cell viability multiplex – SKBR3 breast tumor cells, AlphaScreen, ATP viability, primary screen (AID 461);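 also: lower value means less Her2 protein in the cells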
# Condition summary: 18-24 h, at 10 µM, stronger effect = lower value
Give the value in % but do not write % after it.

Lookup: What value of Her2 level has been recorded for this entry: `CCOC(=O)N1CCN(C(=O)c2ccc3nc4ccsc4c(=O)n3c2)CC1`
Found: 102

Lookup: Please give the result for `Cc1ccc(-n2ncc3c(=O)[nH]c(SC(C)C)nc32)cc1` too.
Found: 104

Lookup: Please give the result for `Cc1ccc(C)n1-n1c(C)nc2sc(-c3ccccc3)cc2c1=O` too.
Found: 106

Lookup: Please give the result for Cc1nc2sc(C(c3cccs3)N3CCOCC3)c(O)n2n1 (stereo unspecified) too.
Found: 100

Lookup: Please give the result for `CC(C)CCn1c(NCCc2ccccc2)nc2c1c(=O)n(C)c(=O)n2C` too.
Found: 57.5

Lookup: Please give the result for `Cc1occc1C(=O)N1CCN(c2ncccn2)CC1` too.
Found: 118

Lookup: Please give the result for Cc1cc(C)cc(N2C(=O)CC(N3CCOCC3)C2=O)c1 (stereo unspecified) too.
Found: 84

Lookup: Please give the result for `O=C(c1cnccn1)N(c1ccccc1)C1(C(=O)NC2CCCC2)CCCCC1` too.
Found: 106

Lookup: Please give the result for `CC(=O)Nc1ccc(S(=O)(=O)Nc2nc3c(s2)CCCC3)cc1` too.
Found: 103

Lookup: Please give the result for `Cc1cccc(-n2ncc3c(N(CCO)CCO)ncnc32)c1` too.
Found: 91.5

Lookup: Please give the result for `COCCn1cc(C(=O)c2ccccc2OCC(=O)Nc2cc(C)on2)cc(C#N)c1=O` too.
Found: 115

----------
Listing of entries alongside the reported viability increase.
# Assay summary: doxorubicin toxicity protection in MRP-1 cells – H69AR cells, CellTiter-Glo, duplicate, MRP-1 activator project, pilot screen (AID 807);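 also: compound pretreatment 18-22 h then 72 h combined with doxorubicin; 0% = doxorubicin alone and 100% = vehicle without doxorubicin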
# Condition summary: H69AR viability with doxorubicin, CellTiter-Glo luminescence; at 10 µM; stronger effect = higher value
Give the value in % but do not write % after it.

Example results:
CC(C)(C)SCCNC(=O)CSc1ccccc1 = -0.61
CCOC(=O)N1CCN(C(=O)C2CCCN(Cc3nc(-c4ccc(Cl)cc4)oc3C)C2)CC1 (stereo unspecified) = -4.13
CC(=O)NC(CCS(C)(=O)=O)C(=O)Nc1cccc2ccccc12 (stereo unspecified) = -2.44
O=C(Cc1c(C(=O)O)[nH]c2ccccc12)NC1CCN(Cc2ccccc2)CC1 = 0.24
O=C(CSc1nnc2ccccn12)c1ccccc1 = 0.47

Lookup: What value of viability increase has been recorded for this entry: CCC1Oc2ccccc2N(CC(=O)NCCCN2CCOCC2)C1=O (stereo unspecified)
Found: -1.49

Lookup: Please give the result for CC1C(=O)C(C)C(c2cccs2)NC1c1cccs1 (stereo unspecified) too.
Found: 0.03

Lookup: Please give the result for C/C=C/COC(=O)c1[nH]c2c(c1C)C(=O)CC(c1ccc(N(C)C)cc1)C2 (stereo unspecified) too.
Found: -2.69

Lookup: Please give the result for COc1cc(OC)c(NC2c3ccccc3C(=O)N2c2cc(C)ccn2)cc1Cl (stereo unspecified) too.
Found: 0.48

Lookup: Please give the result for CCOC(=O)C1C(C)N=C2SCC(=O)N2C1c1cccc(Br)c1 (stereo unspecified) too.
Found: -0.84

Lookup: Please give the result for `Cc1ccccc1-n1c(Cn2c(=O)sc3ccccc32)nnc1SCC(=O)N1CCCC1` too.
Found: -0.45

----------
# Assay summary: viability of PTEN-null HCT116 cells – cell-based, HCT116 clonal line, CellTiter-Glo, pilot screen (AID 824);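 also: 0% = 20 µM Hyamine control and 100% = vehicle cell control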
# Condition summary: HCT116 PTEN-deleted viability, 60 h, at 10 µM, stronger effect = lower value
Records with an inconclusive call do not appear.
Listing of entries alongside the reported viability.
Give the value in % but do not write % after it.

Example results:
CCOC(=O)N1CCN(CC(=O)Nc2ccc(C)cc2)CC1 = 100
Cc1ccc2oc(=O)c3cnn(CC(=O)NCCC(C)C)c3c2c1 = 100
COc1ccc(-c2nc(N3CCCC3)[nH]c(=O)c2C#N)cc1 = 90.7
Cn1c(CSc2nc3ccccc3s2)nnc1SCC(=O)NCCN1CCOCC1 = 86.7

Now for another entry.
Lookup: What value of viability has been recorded for this entry: `O=C(Nc1ccccc1)c1cnc2n(c1=O)CCS2`
Found: 97.2

----------
# Assay summary: viability of PTEN-null HCT116 cells – cell-based, HCT116 clonal line, CellTiter-Glo, pilot screen (AID 824);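 also: 0% = 20 µM Hyamine control and 100% = vehicle cell control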
# Condition summary: HCT116 PTEN-deleted viability, 60 h, at 10 µM, stronger effect = lower value
Records with an inconclusive call do not appear.
Readout label: viability (%)
Give the value in % but do not write % after it.

COc1ccccc1N1CCN(C(=O)C2CCN(S(=O)(=O)c3ccc(F)cc3)CC2)CC1 = 84
CCn1c(=O)cc(OCC(=O)N2CCc3ccccc32)c2ccccc21 = 89.9
O=c1c2c3c(sc2nc2n1CCCCC2)CCCCC3 = 91.7
Cc1cc(C)nc(SCc2ccccc2C#N)n1 = 98
COc1ccc(C2CC(c3ccc(OC)cc3)n3nc(N)nc3N2)cc1 (stereo not drawn) = 98.1
CC(=O)Nc1ccc(N=Cc2ccc[nH]2)cc1 = 92.8

Lookup: What value of viability has been recorded for this entry: `O=C(NCCc1ccccc1)C1CCN(C(=O)c2sccc2-n2cccc2)CC1`
Found: 93.8

Lookup: Please give the result for `CC(=O)N1CCc2cc(C(=O)CN3CCCN(Cc4ccc(F)cc4)C3)ccc21` too.
Found: 95.8

Lookup: Please give the result for `O=C(NCCCN1CCOCC1)c1ccc(CS(=O)(=O)c2c(Cl)cccc2Cl)o1` too.
Found: 92.3

Lookup: Please give the result for `O=C(c1cccs1)N1CCc2ccccc21` too.
Found: 95.8

Lookup: Please give the result for `COc1ccc(S(=O)(=O)N2CCC(C(N)=O)CC2)cc1` too.
Found: 102

Lookup: Please give the result for `COc1ccccc1Oc1ccc(S(=O)(=O)N2CCOCC2)cc1S(=O)(=O)N1CCOCC1` too.
Found: 98.3

Lookup: Please give the result for COc1ccccc1NC(=O)C1CCCN(S(=O)(=O)c2cnc[nH]2)C1 (stereo not drawn) too.
Found: 95.5

Lookup: Please give the result for `Cc1cc(C(=O)Nc2cccnc2)on1` too.
Found: 93.4

Lookup: Please give the result for `Cc1c(C)n(C)c2ccc(C(=O)NCc3cccs3)cc12` too.
Found: 96.8

Lookup: Please give the result for `COc1ccccc1NC(=O)c1ccc(S(=O)(=O)N2CCCC2)cc1` too.
Found: 94.9

Lookup: Please give the result for `N#C/C(C(=O)c1ccccc1)=C1/CCCN1` too.
Found: 105

Lookup: Please give the result for `CCn1cc(C(=O)N2CCOCC2)c(=O)c2cc(S(=O)(=O)N(C)C3CCCCC3)ccc21` too.
Found: 95.8

Lookup: Please give the result for `COc1ccc(OC)c(NC(=O)c2nnn(Cc3ccc(Br)cc3F)c2N)c1` too.
Found: 66.1

Lookup: Please give the result for `CSc1nnc(Cn2c(=O)sc3ccccc32)n1-c1ccccc1C` too.
Found: 96.7

Lookup: Please give the result for CCC(C)NC(=O)CS(=O)(=O)Cc1nc(-c2cccc(OC)c2)oc1C (stereo not drawn) too.
Found: 93.5

Lookup: Please give the result for COCCOC(=O)C1=C(C)OC(N)=C(C#N)C1c1ccc2c(c1)OCO2 (stereo not drawn) too.
Found: 105

Lookup: Please give the result for CC1CCCCN1C(=O)c1ccc(S(=O)(=O)N2CCCCC2C)cc1 (stereo not drawn) too.
Found: 95.6
